Tested on: PXR homodimer (NR concentration 270 nM)
Assay: PBM binding z-score (relative to random genomic background probes); higher = stronger binding; sequences stand for … in GC…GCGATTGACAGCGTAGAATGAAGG
Readings of PBM binding z-score for the listed sequences
Result type: PBM binding z-score

>>> reading("CCGAGTAGGTTACGAGGGGGCATTCCGTGCGAAT")
0.912
>>> reading("CCTACTGGGCCAAGGTCATTGACCAGTCAAAGCA")
1.37
>>> reading("CGACCTAGGTCACCAGGACAGTGAAGAGGTTGGA")
-0.328
>>> reading("ATATGTAGGTTAGGGTAATTCAGAAAGTAGGGAA")
1.34
>>> reading("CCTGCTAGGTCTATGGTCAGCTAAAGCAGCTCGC")
-0.846
>>> reading("CAGCCTAGTTCAGGGCCAGTATAGGAGGAACGTT")
0.431
>>> reading("CCGTGTAGGTTACGAGGGGGCATTCAGTGCGAAT")
7.2
>>> reading("CCGAGTAGGTTACGAGTGGGCATTCAGTGCGAAT")
-0.15
>>> reading("CAAAGTAGGTCACCGGAAGGTCAAAGTCCGCATG")
1.73
>>> reading("CCTACTGGGCCATACAGAGGTCATTGATCATATG")
2.92
>>> reading("AATACAGGGTCATTAGGCCAGAGTAGGTACGAAT")
0.493
>>> reading("CTATGTAGGTTAAGGGGGCCATTCAGTTTGAAAG")
3.67

Reference for the values: the supplement of paper PMC6555819
